Origin of values: PubChem BioAssay (EPA / NIEHS)

- Read-out: Interleukin-8 (IL8), CXCL8 (gene 3576)
- PROTOCOL: BSK_SAg_IL8: BioMAP Diversity Plus: SAg Assay for Interleukin-8 (IL8) Biomarker Activity (AID 2283094)
- STUDY_CONDITIONS: primary human HUVEC with PBMC; actives raise or lower the signal
- Procedure: BSK_SAg is a cell-based, multiplexed-readout assay that uses umbilical vein endothelium and peripheral blood mononuclear cells, a human vascular primary cell co-culture, with measurements taken at 24 hours after chemical dosing in a 96-well plate.BSK_SAg_IL8 is an assay component measured in the BSK_SAg assay. It measures IL-8 antibody related to regulation of gene expression using ELISA technology.Data from the assay component BSK_SAg_IL8 was analyzed into 1 assay endpoint. […]
Calls of active or inactive are those of the source. The calls were made as follows: active = hit-call score of the fitted dose curve at least 0.9, where 1 is the maximum; inactive = score below 0.9.
Hi! Could you answer with just one of these? True = active, False = inactive

Kindly provide the recorded test outcome for the following compound: Oc1ccc(Cl)cc1Cl
False

Kindly provide the recorded test outcome for the following compound: Nc1ccc(-c2ccc(N)cc2)cc1
False

Kindly provide the recorded test outcome for the following compound: C[C@]12CCC(=O)C=C1CC[C@@H]1[C@@H]2CC[C@@]2(C)[C@H]1CC[C@]2(C)O
False

Kindly provide the recorded test outcome for the following compound: CCOC(=O)C(O)(c1ccc(Cl)cc1)c1ccc(Cl)cc1
True

Kindly provide the recorded test outcome for the following compound: CCCCCCCCCc1ccc(O)cc1
True

Kindly provide the recorded test outcome for the following compound: CN(C)CCO
False
